Listing: TL1A Binding Level (Early) of selected binders
- tested on: T1, human TL1A extracellular domain with N-terminal HIS and FLAG tag (human, UniProt O95150 72-251)
- T1 construct: whole entry named. ~70 kDa fraction purified by gel filtration
- T1 sequence: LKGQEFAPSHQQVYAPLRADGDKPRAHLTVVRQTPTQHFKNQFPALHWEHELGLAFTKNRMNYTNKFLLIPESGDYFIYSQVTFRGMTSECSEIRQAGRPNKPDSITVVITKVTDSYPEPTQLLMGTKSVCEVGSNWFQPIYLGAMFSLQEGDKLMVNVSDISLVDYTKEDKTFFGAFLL
- test name: SPR run 2; supernatant on Protein A; TL1A 10 ug/mL; timepoint 44
Write the value in RU as a bare number.

>>> quantitative_result("320-204 (antibody, human IgG1, name in Kabat numbering, V domains shown, human IgG1, lambda) VH: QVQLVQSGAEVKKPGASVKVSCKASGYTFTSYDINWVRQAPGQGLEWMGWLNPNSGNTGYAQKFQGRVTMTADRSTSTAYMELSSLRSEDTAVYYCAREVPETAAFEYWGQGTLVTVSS VL: QSVLTQPPSVSGAPGQRVTISCTHSSSDIGAGLGVHWYQQLPGTAPKLLIEGYYNRPSGVPDRFSGSKSGTSASLTITGLLPEDEGDYYCQSYDGTLSALFGGGTKLTVLG")
193

As a next step, examine the binder that follows.
Fill in the blank: the reported TL1A Binding Level (Early) of 320-232 (antibody, human IgG1, name in Kabat numbering, V domains shown, human IgG1, lambda) VH: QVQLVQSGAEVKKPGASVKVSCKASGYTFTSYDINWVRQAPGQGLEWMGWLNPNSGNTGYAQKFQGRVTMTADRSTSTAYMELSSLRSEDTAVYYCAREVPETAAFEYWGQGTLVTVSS VL: QSVLTQPPSVSGAPGQRVTISCTSSSYDIGAGLGVHWYQQLPGTAPKLLIEGYYNRPSGVPDRFSGSKSGTSASLTITGLLPEDEGDYYCQSYDGTLSALFGGGTKLTVLG is ____. 261
